molecular target: rat TAAR1 (Rattus norvegicus (Rat), UniProt Q923Y9); experiment: Radioligand binding assay on rat TAAR1; details: rat TAAR1 (second value of the cell), HEK-293 membranes; read-out: Ki (μM) mouse/rat
Sequence (Q923Y9 whole entry): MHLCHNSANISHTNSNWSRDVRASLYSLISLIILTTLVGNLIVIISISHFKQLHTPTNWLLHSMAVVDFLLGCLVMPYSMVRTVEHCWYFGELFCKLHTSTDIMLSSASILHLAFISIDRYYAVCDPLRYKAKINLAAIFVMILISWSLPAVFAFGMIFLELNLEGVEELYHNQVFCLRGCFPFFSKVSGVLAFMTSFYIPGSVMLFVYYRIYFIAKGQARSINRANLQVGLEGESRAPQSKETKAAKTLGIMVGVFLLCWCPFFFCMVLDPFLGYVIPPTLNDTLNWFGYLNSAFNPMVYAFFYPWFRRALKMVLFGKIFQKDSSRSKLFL
# Ki annotations
Numeric only. Scale: µM

Solved entries (count: 2):
Fc1cc(Nc2ncc(C3CC3)cn2)ccc1[C@H]1CNCCO1 :: 0.0252
Fc1cc(Nc2ncc(F)c(OCC(F)(F)F)n2)ccc1[C@@H]1CNCCO1 :: 0.0025

So what does the record say about Ki for Clc1ccc(Nc2ccc(C3CNCCO3)cc2)nc1 (racemic) ?
0.029

What do you get for `FC(F)(F)c1cc(Nc2ccc([C@H]3CNCCO3)cc2)c2cccc(C(F)(F)F)c2n1` ?
0.104

Likewise for `Cc1cc(Nc2ccc([C@H]3CNCCO3)cc2)ncc1Br` ?
0.0094

Here is the next compound: c1cc(C2CNCCO2)ccc1Nc1ccn(CC2CC2)n1 (racemic)
0.14

Entry `c1cc([C@H]2CNCCO2)ccc1Nc1ccc2c(c1)OCO2` please
0.629

Then what about the compound `FC(F)(F)c1cc(Nc2ccc([C@H]3CNCCO3)cc2)ncc1Cl` ?
0.0101

`FC(F)(F)COc1ccnc(Nc2ccc([C@H]3CNCCO3)cc2)n1` , same question.
0.01

Next compound: Cc1cc(C2CNCCO2)ccc1Nc1ccc(Cl)cc1 (racemic)
0.0716

One more compound: `Fc1cnc(Nc2ccc([C@H]3CNCCO3)cc2)nc1`
0.504

What do you have for `Clc1cccc2ccc(Nc3ccc([C@H]4CNCCO4)cc3)nc12` ?
0.0084

Do the same for `Brc1ccc(Nc2ccc([C@H]3CNCCO3)cn2)nc1` please
0.362

// same read-out, input: `FC(F)(F)c1ccc(CNc2ccc([C@H]3CNCCO3)cc2)cc1`
0.149

Next record, please: Cc1cc(C2CNCCO2)cnc1Nc1ccc(Br)cn1 (racemic)
0.0364

What do you have for `Fc1cc([C@H]2CNCCO2)ccc1Nc1ncc(Br)cn1` ?
0.0165

Also, `c1cc([C@@H]2CNCCO2)ccc1Nc1ncc(OCC2CC2)cn1` please.
0.0278

Cool, now `Fc1cc(Nc2ncc(Cl)cn2)ccc1[C@@H]1CNCCO1`
0.0266
